# System: Moraxella catarrhalis
# Experiment notes: Ratio of MBC to MIC for erythromycin-susceptible Moraxella catarrhalis 13L332
# Type: functional
Observed property: Ratio

CC[C@H]1OC(=O)[C@H](C)[C@@H](OCC#Cc2ccc(OCc3ccccc3)cc2)[C@H](C)[C@@H](O[C@@H]2O[C@H](C)C[C@H](N(C)C)[C@H]2O)[C@](C)(OC)C[C@@H](C)/C(=N\OC)[C@H](C)[C@H]2OC(=O)O[C@@]21C: 1
CC[C@H]1OC(=O)[C@H](C)[C@@H](OCC#Cc2ccc(C(=O)c3ccccc3)s2)[C@H](C)[C@@H](O[C@@H]2O[C@H](C)C[C@H](N(C)C)[C@H]2O)[C@](C)(OC)C[C@@H](C)/C(=N\OC)[C@H](C)[C@H]2OC(=O)O[C@@]21C: 2
CC[C@H]1OC(=O)[C@H](C)C(=O)[C@H](C)[C@@H](O[C@@H]2O[C@H](C)C[C@H](N(C)C)[C@H]2O)[C@](C)(OC)C[C@@H](C)C(=O)[C@H](C)[C@H]2N(CCCCn3cnc(-c4cccnc4)c3)C(=O)O[C@]12C [TELITHROMYCIN]: 4

---

# Tested on: Streptococcus pneumoniae
# Experiment notes: Antimicrobial activity against mef-encoded erythromycin resistant Streptococcus pneumoniae PU09 incubated in CAMHB medium for 20 to 24 hrs by two-fold microbroth dilution method
# Format: functional
Observed property: MIC (µg/mL)

C=CCO/N=C1\[C@H](C)C[C@@](C)(OC)[C@H](O[C@@H]2O[C@H](C)C[C@H](N(C)C)[C@H]2O)[C@@H](C)[C@H](O)[C@@H](C)C(=O)O[C@H](CC)[C@@]2(C)OC(=O)O[C@@H]2[C@H]1C: 16
CC[C@H]1OC(=O)[C@H](C)[C@@H](OC(=O)CCNCCNc2cc3c(=O)c(C(=O)O)cn(C4CC4)c3cc2Cl)[C@H](C)[C@@H](O[C@@H]2O[C@H](C)C[C@H](N(C)C)[C@H]2O)[C@](C)(OC)C[C@@H](C)/C(=N\OC)[C@H](C)[C@H]2OC(=O)O[C@@]21C: 8
CC[C@H]1OC(=O)[C@H](C)[C@@H](OC(=O)CCNCCCc2ccc(-n3ccnc3)cc2)[C@H](C)[C@@H](O[C@@H]2O[C@H](C)C[C@H](N(C)C)[C@H]2O)[C@](C)(OC)C[C@@H](C)/C(=N\OC)[C@H](C)[C@H]2OC(=O)O[C@@]21C: 4

---

# Experiment notes: AUC (0 to t) in Sprague-Dawley rat at 20 mg/kg, po administered as single dose measured for 0.25 to 24 hrs by LC-MS/MS analysis
# Format: ADME, organism-based
# Parameters: time 0.25-24 hr, dose 20 mg/kg, route oral
# Conditions: in vivo
Observed property: AUC(0-t) (ng·h/mL)

CC[C@H]1OC(=O)[C@H](C)[C@@H](OC(=O)NCCCc2cccnc2)[C@H](C)[C@@H](O[C@@H]2O[C@H](C)C[C@H](N(C)C)[C@H]2O)[C@](C)(OC)C[C@@H](C)/C(=N\OC)[C@H](C)[C@H]2OC(=O)O[C@@]21C: 6730

---

Catalogue of molecules with associated MIC
# Test system: Streptococcus pneumoniae
# Experiment notes: Antimicrobial activity against mef-encoded erythromycin resistant Streptococcus pneumoniae PU09 incubated in CAMHB medium for 20 to 24 hrs by two-fold microbroth dilution method
# Format: functional
Observed property: MIC

CC[C@H]1OC(=O)[C@H](C)[C@@H](O[C@H]2C[C@@](C)(OC)[C@@H](O)[C@H](C)O2)[C@H](C)[C@@H](O[C@@H]2O[C@H](C)C[C@H](N(C)C)[C@H]2O)[C@](C)(O)C[C@@H](C)CN(C)[C@H](C)[C@@H](O)[C@]1(C)O: 16 µg/mL
C=CCO/N=C1\[C@H](C)C[C@@](C)(OC)[C@H](O[C@@H]2O[C@H](C)C[C@H](N(C)C)[C@H]2O)[C@@H](C)[C@H](OCC#Cc2cncnc2)[C@@H](C)C(=O)O[C@H](CC)[C@@]2(C)OC(=O)O[C@@H]2[C@H]1C: 4 µg/mL
CC[C@H]1OC(=O)[C@H](C)[C@@H](OC(=O)NCCCCc2cccnc2)[C@H](C)[C@@H](O[C@@H]2O[C@H](C)C[C@H](N(C)C)[C@H]2O)[C@](C)(OC)C[C@@H](C)/C(=N\OC)[C@H](C)[C@H]2OC(=O)O[C@@]21C: 8 µg/mL
CC[C@H]1OC(=O)[C@H](C)[C@@H](OCC#Cc2ccc(C(=O)c3ccccc3)s2)[C@H](C)[C@@H](O[C@@H]2O[C@H](C)C[C@H](N(C)C)[C@H]2O)[C@](C)(OC)C[C@@H](C)/C(=N\OC)[C@H](C)[C@H]2OC(=O)O[C@@]21C: 4 µg/mL

---

Catalogue of compounds with associated MBC
# Test system: Staphylococcus aureus
# Experiment notes: Bactericidal activity against inducibly erythromycin-resistant and methicillin resistant Staphylococcus aureus PU32 expressing i-ermA assessed as reduction in colony formation incubated in CAMHB medium for 20 hrs followed by 24 hrs subculturing in the medium without test compound
# Assay type: functional
Observed property: MBC

CC[C@H]1OC(=O)[C@H](C)[C@@H](OCC#Cc2cncc(NC(=O)c3ccccn3)c2)[C@H](C)[C@@H](O[C@@H]2O[C@H](C)C[C@H](N(C)C)[C@H]2O)[C@](C)(OC)C[C@@H](C)/C(=N\OC)[C@H](C)[C@H]2OC(=O)O[C@@]21C: > 256 µg/mL
CC[C@H]1OC(=O)[C@H](C)[C@@H](OC(=O)CCNC/C=C/c2cccnc2)[C@H](C)[C@@H](O[C@@H]2O[C@H](C)C[C@H](N(C)C)[C@H]2O)[C@](C)(OC)C[C@@H](C)/C(=N\OC)[C@H](C)[C@H]2OC(=O)O[C@@]21C: > 256 µg/mL
CC[C@H]1OC(=O)[C@H](C)C(=O)[C@H](C)[C@@H](O[C@@H]2O[C@H](C)C[C@H](N(C)C)[C@H]2O)[C@](C)(OC)C[C@@H](C)C(=O)[C@H](C)[C@H]2N(CCCCn3cnc(-c4cccnc4)c3)C(=O)O[C@]12C: 1 to 2 µg/mL
CC[C@H]1OC(=O)[C@H](C)[C@@H](OC(=O)CCNCCNc2cc3c(=O)c(C(=O)O)cn(C4CC4)c3cc2Cl)[C@H](C)[C@@H](O[C@@H]2O[C@H](C)C[C@H](N(C)C)[C@H]2O)[C@](C)(OC)C[C@@H](C)/C(=N\OC)[C@H](C)[C@H]2OC(=O)O[C@@]21C: > 256 µg/mL
CC[C@H]1OC(=O)[C@H](C)[C@@H](OC(=O)CCNCCCCc2cccnc2)[C@H](C)[C@@H](O[C@@H]2O[C@H](C)C[C@H](N(C)C)[C@H]2O)[C@](C)(OC)C[C@@H](C)/C(=N\OC)[C@H](C)[C@H]2OC(=O)O[C@@]21C: > 256 µg/mL
CC[C@H]1OC(=O)[C@H](C)[C@@H](OC(=O)NCC#Cc2cccnc2)[C@H](C)[C@@H](O[C@@H]2O[C@H](C)C[C@H](N(C)C)[C@H]2O)[C@](C)(OC)C[C@@H](C)/C(=N\OC)[C@H](C)[C@H]2OC(=O)O[C@@]21C: > 128 µg/mL
CC[C@H]1OC(=O)[C@H](C)[C@@H](OCC#Cc2ccc(C(=O)c3ccccc3)s2)[C@H](C)[C@@H](O[C@@H]2O[C@H](C)C[C@H](N(C)C)[C@H]2O)[C@](C)(OC)C[C@@H](C)/C(=N\OC)[C@H](C)[C@H]2OC(=O)O[C@@]21C: > 256 µg/mL
CC[C@H]1OC(=O)[C@H](C)[C@@H](OCC#Cc2ccc(-c3ccccn3)s2)[C@H](C)[C@@H](O[C@@H]2O[C@H](C)C[C@H](N(C)C)[C@H]2O)[C@](C)(OC)C[C@@H](C)/C(=N\OC)[C@H](C)[C@H]2OC(=O)O[C@@]21C: > 256 µg/mL
C=CCNCCC(=O)O[C@H]1[C@H](C)[C@@H](O[C@@H]2O[C@H](C)C[C@H](N(C)C)[C@H]2O)[C@](C)(OC)C[C@@H](C)/C(=N\OC)[C@H](C)[C@H]2OC(=O)O[C@]2(C)[C@@H](CC)OC(=O)[C@@H]1C: > 256 µg/mL
CC[C@H]1OC(=O)[C@H](C)[C@@H](OC(=O)NCCCc2cccnc2)[C@H](C)[C@@H](O[C@@H]2O[C@H](C)C[C@H](N(C)C)[C@H]2O)[C@](C)(OC)C[C@@H](C)/C(=N\OC)[C@H](C)[C@H]2OC(=O)O[C@@]21C: 16 µg/mL
CC[C@H]1OC(=O)[C@H](C)[C@@H](OC(=O)NCCCc2ccc3c(c2)c(=O)c(C(=O)O)cn3C2CC2)[C@H](C)[C@@H](O[C@@H]2O[C@H](C)C[C@H](N(C)C)[C@H]2O)[C@](C)(OC)C[C@@H](C)/C(=N\OC)[C@H](C)[C@H]2OC(=O)O[C@@]21C: > 256 µg/mL
